# Lookup of reported growth inhibition keyed by entry
test: NCI Yeast Anticancer Drug Screen. Data for the mec2-1 strain (AID 157); settings: S. cerevisiae mec2-1 strain, at 50.0 µM, active compounds read high
The panel holds about 79,000 compounds, 15% with a hit somewhere; the sample as a whole holds those more often.
quantity measured: growth inhibition (%)

molecule=NC(=O)c1csc(Nc2csc(N)n2)n1 unit_of_measurement=% value=-15.5
molecule="COC1CC(C)(NC(=O)C(F)(F)F)C2OC(c3ccccc3)OCC2O1 (centres undefined)" unit_of_measurement=% value=-17.7
molecule="CC(=O)NC(Cc1ccc(O)cc1)C(=O)O (centres undefined)" unit_of_measurement=% value=5.25
molecule=CC(=O)OCc1c(COC(C)=O)c(-c2ccc(Cl)c(Cl)c2)n2c1CCC2 unit_of_measurement=% value=-17.1
molecule="C[S+]1Cc2nc3ccccc3n2C1c1c(F)cccc1F (centres undefined)" unit_of_measurement=% value=-19.2
molecule=O=P(O)(O)c1ccc(Cl)cc1 unit_of_measurement=% value=-1.3
molecule="CCC1c2c(cc(=O)[nH]c2O)C(=O)N1C (centres undefined)" unit_of_measurement=% value=-4.75
molecule="CC1=CC2(C)OC3C(=O)N(c4ccc(Cl)cc4)C(=O)C3C2N=C1 (centres undefined)" unit_of_measurement=% value=-22.9
molecule=CCCCN(CCCC)C1=Nc2ccccc2-n2c(nnc2C(=O)OCC)C1 unit_of_measurement=% value=44.5

----------
assay: NCI Yeast Anticancer Drug Screen. Data for the mec2-1 strain (AID 157); conditions: S. cerevisiae mec2-1 strain, at 50.0 µM, active compounds read high
About 79,000 compounds went through this panel and 15% of them were active in at least one assay; those are over-represented in the sample as a whole.
Quick reference: growth inhibition of the listed items.
quantity measured: growth inhibition (%)

molecule="COc1ccc(NC2CC(C)N(C(=O)c3ccccc3)O2)cc1 (configuration not stated)" unit_of_measurement=% value=-37.2
molecule="NCC1CCC(C(=O)O)CC1 (configuration not stated)" unit_of_measurement=% value=-9.35
molecule=COc1cc2c(cc1O)C(=O)CCC(C(=O)O)=C2 unit_of_measurement=% value=-12.8
molecule=CCC(=O)c1nc(N)[nH]c1CC unit_of_measurement=% value=-21.6
molecule=COc1cc(C(=O)NOCc2cccc(C(F)(F)F)c2)cc(OC)c1OC unit_of_measurement=% value=-11.2
molecule="NC1CC(=O)C(CC2C(=O)CC(N)CC2=O)C(=O)C1 (configuration not stated)" unit_of_measurement=% value=0.05
molecule=CN(C)CCCN1C=CC(=C2C(=O)c3ccccc3C2=O)C=C1 unit_of_measurement=% value=20.8
molecule=CC/C(=C\c1ccc(OC)cc1)c1ccc(OC)cc1 unit_of_measurement=% value=-31.1
molecule=C=C1c2nc3ccccc3n2C=C(c2ccccc2)N1c1ccc([N+](=O)[O-])cc1 unit_of_measurement=% value=41.6
molecule="Cc1ccc(S(=O)(=O)N/N=C2\\CCC3CC2C3(C)C)cc1 (configuration not stated)" unit_of_measurement=% value=2.05
molecule=O=c1[nH]nc(-c2ccc3c(c2)Cc2ccccc2-3)c2ccccc12 unit_of_measurement=% value=-0.15
molecule="CNCC(OC(C)C)c1ccc(O)c(O)c1 (configuration not stated)" unit_of_measurement=% value=-2.85
molecule=COc1ccccc1C/C(=N/O)c1ccccc1OC unit_of_measurement=% value=-2.8
molecule="O=C(OCc1ccccc1)C1CC1 (tested in a mixture with another compound)" unit_of_measurement=% value=14.8
molecule=Cc1ccc2cc(C)c(C)cc2c1 unit_of_measurement=% value=-3.35
molecule=O=c1oc2ccccc2c(O)c1Cc1cccc(Cc2c(O)c3ccccc3oc2=O)c1 unit_of_measurement=% value=5.05
molecule=C=CCNC(=S)N(C)Cc1ccccc1Cl unit_of_measurement=% value=35.5
molecule=Cc1ccccc1C(c1ccccc1C)C(CC(=O)O)CC(=O)O unit_of_measurement=% value=14.2
molecule="CC(C)(C)OC(=O)CC(O)c1ccccc1 (configuration not stated)" unit_of_measurement=% value=-2.9
molecule=O=C(O)c1ccc(NS(=O)(=O)Cc2ccccc2)cc1 unit_of_measurement=% value=-24.1
molecule=CN(C)CC1=C(O)c2ccccc2C(=O)C1=O unit_of_measurement=% value=-1.2
molecule="COC(=O)c1c2c(cc3c1CC1(C3)Cc3cc4c(c(C(C)=O)c3C1)CCC4)C=CC2 (configuration not stated)" unit_of_measurement=% value=-12.3
